Species: Homo sapiens
Experiment: Inhibition of TRAP-6 (SFLLRN-NH2)-induced human gel filtered platelet aggregation (GFP).
Assay type: functional
pIC50: −log10 of the molar value. Numbered stars: 1 amine (or outer) side, 2 acyl side, 3 side chain; on linkers, the order of the positions; unused ones are H or OH. Square brackets hold non-standard residues; d marks the D form. Peptide text beside a SMILES is read from it. ξ: configuration not given here. Phe(4-F)ψ(2,4-Thz) = O=C(c1csc([C@H](Cc2ccc(F)cc2)N[*:1])n1)[*:2]; X1 = COc1ccc(C[C@H](N[*:1])c2nc(C(=O)[*:2])cs2)cc1; hArg = N=C(N)NCCCC[C@H](N)C(=O)O; Cha = N[C@@H](CC1CCCCC1)C(=O)O; ξV = CC(C)C(N)C(=O)O; Sar = CNCC(=O)O

COMPOUND	CENSORING_SIGN	pIC50
CNCC(=O)N[C@@H](Cc1ccc(F)cc1)c1nc(C(=O)N[C@@H](CC2CCCCC2)C(=O)N[C@@H](CCCN=C(N)N)C(=O)N[C@@H](CC2CCCCC2)C(N)=O)cs1 (H-[Sar][Phe(4-F)ψ(2,4-Thz)][Cha]R[Cha]-NH2)	=	5.17
CNCC(=O)N[C@@H](Cc1ccc(F)cc1)c1nc(C(=O)N[C@@H](CC2CCCCC2)C(=O)N[C@@H](CCCCN=C(N)N)C(=O)N[C@@H](Cc2ccccc2)C(N)=O)cs1 (H-[Sar][Phe(4-F)ψ(2,4-Thz)][Cha][hArg]F-NH2)	=	5.11
COc1ccc(C[C@H](NC(=O)C(N)C(C)C)c2nc(C(=O)N[C@@H](CC3CCCCC3)C(=O)N[C@@H](CCCN=C(N)N)C(=O)N[C@@H](Cc3ccccc3)C(N)=O)cs2)cc1 (stereo not given in full) (H-[ξV][X1][Cha]RF-NH2)	=	5.02
CNCC(=O)N[C@@H](Cc1ccc(F)cc1)c1nc(C(=O)N[C@@H](CC2CCCCC2)C(=O)N[C@@H](CCCN=C(N)N)C(=O)NCc2ccccc2)co1	=	5.18
CNCC(=O)N[C@@H](Cc1ccc(F)cc1)c1nc(C(=O)N2CCCC(C(=O)N[C@@H](CCCNC(=N)N)C(=O)N[C@@H](Cc3ccccc3)C(N)=O)C2)cs1 (stereo not given in full)	<	4.00

Source of measurements: ChEMBL document CHEMBL1130860
